I'd be grateful if you could share measured IC50 for these entries.
target: NRAS Q61R (Homo sapiens (Human), UniProt P01111+P62937, Q61R); experiment: Ras-Raf disruption/FRET/MOA assay (BRAF RBD, Cyclophilin A); type: biochemical
Sequence (P01111 whole entry Q61R, one chain of several): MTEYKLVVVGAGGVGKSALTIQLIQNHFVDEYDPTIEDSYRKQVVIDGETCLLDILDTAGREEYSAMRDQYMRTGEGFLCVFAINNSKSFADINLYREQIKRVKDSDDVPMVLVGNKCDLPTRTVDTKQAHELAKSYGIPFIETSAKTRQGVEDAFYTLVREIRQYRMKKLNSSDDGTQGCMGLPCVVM

As a guide, the following entries are already answered.
given_smiles=CCn1c(-c2cccnc2[C@H](C)OC)c2c3cc(ccc31)-c1csc(n1)C[C@H](NC(=O)C1CC1)C(=O)N1CCC[C@H](N1)C(=O)OCC(C)(C)C2 test_target="NRAS Q61R (Homo sapiens (Human), UniProt P01111+P62937, Q61R)" measured_property=IC50 observed="1 to 10 µM"
given_smiles=CCn1c(-c2cccnc2[C@H](C)OC)c2c3cc(ccc31)-c1csc(n1)C[C@H](NC(=O)[C@H](C(C)C)N(C)C(=O)N1C3COCC1C3)C(=O)N1CCC[C@H](N1)C(=O)OCC(C)(C)C2 test_target="NRAS Q61R (Homo sapiens (Human), UniProt P01111+P62937, Q61R)" measured_property=IC50 observed="0.1 to 1 µM"
given_smiles=CCn1c(-c2cccnc2[C@H](C)OC)c2c3cc(ccc31)-c1csc(n1)C[C@H](NC(=O)[C@H](C(C)C)N(C)C(=O)N1CC(S(=O)(=O)N(C)C)C1)C(=O)N1CCC[C@H](N1)C(=O)OCC(C)(C)C2 test_target="NRAS Q61R (Homo sapiens (Human), UniProt P01111+P62937, Q61R)" measured_property=IC50 observed="0.1 to 1 µM"
given_smiles=CCn1c(-c2cccnc2[C@H](C)OC)c2c3cc(ccc31)-c1csc(n1)C[C@H](NC(=O)[C@H](C(C)C)N(C)C(=O)N1CCC13CCS(=O)(=O)CC3)C(=O)N1CCC[C@H](N1)C(=O)OCC(C)(C)C2 test_target="NRAS Q61R (Homo sapiens (Human), UniProt P01111+P62937, Q61R)" measured_property=IC50 observed="0.1 to 1 µM"

Continue with the compound presented below.
**Query** Please give the measured IC50 for this compound: CCn1c(-c2cccnc2[C@H](C)OC)c2c3cc(ccc31)-c1cccc(c1)C[C@H](NC(=O)[C@H](C(C)C)N(C)C(C)=O)C(=O)N1CCC[C@H](N1)C(=O)OCC(C)(C)C2
**Result** 1 to 10 µM

* * *

Answer each item with its documented IC50.
target: KRAS G13D (Homo sapiens (Human), UniProt P01116+P62937, G13D); test: Ras-Raf disruption/FRET/MOA assay (BRAF RBD, Cyclophilin A); format: biochemical; conditions: read-out: KRAS G13D FRET data IC50
Sequence (P01116 other isoform, or with tags, fused parts or gaps G13D, one chain of several): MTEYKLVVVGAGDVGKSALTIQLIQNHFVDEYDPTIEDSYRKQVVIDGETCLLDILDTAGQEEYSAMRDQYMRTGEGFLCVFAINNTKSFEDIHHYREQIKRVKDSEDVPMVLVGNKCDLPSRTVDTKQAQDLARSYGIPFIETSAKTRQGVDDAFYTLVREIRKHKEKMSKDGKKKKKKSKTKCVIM

Here's what some known entries look like.
compound="CCn1c(-c2cccnc2[C@H](C)OC)c2c3cc(ccc31)-c1csc(n1)C[C@H](NC(=O)[C@H](C(C)C)N(C)C(=O)N1CC[C@@]3(CCNC3=O)C1)C(=O)N1CCC[C@H](N1)C(=O)OCC(C)(C)C2 [Compound A480]" observed="100 to 1000 nM"
compound="CCn1c(-c2cccnc2[C@H](C)OC)c2c3cc(ccc31)-c1csc(n1)C[C@H](NC(=O)[C@H](C(C)C)N(C)C(=O)N1CC(S(C)(=O)=O)C1)C(=O)N1CCC[C@H](N1)C(=O)OCC(C)(C)C2 [Compound A383]" observed="100 to 1000 nM"
compound="CCn1c(-c2cccnc2[C@H](C)OC)c2c3cc(ccc31)-c1csc(n1)C[C@H](NC(=O)[C@H](C(C)C)N(C)C(=O)N1[C@H](C)COC[C@@H]1C)C(=O)N1CCC[C@H](N1)C(=O)OCC(C)(C)C2 [Compound A276]" observed="1000 to 10000 nM"
compound="CCn1c(-c2cccnc2[C@H](C)OC)c2c3cc(ccc31)-c1csc(n1)C[C@H](NC(=O)[C@H](C(C)C)N(C)C(=O)N1CC(N3CCC3)C1)C(=O)N1CCC[C@H](N1)C(=O)OCC(C)(C)C2 [Compound A295]" observed="100 to 1000 nM"
compound="CCn1c(-c2cnccc2COC)c2c3cc(ccc31)-c1cc(O)cc(c1)C[C@H](NC(=O)[C@H](C(C)C)N(C)C(=O)[C@@H](C)O)C(=O)N1CCC[C@H](N1)C(=O)OCC(C)(C)C2 [Compound A92]" observed="1000 to 10000 nM"

Required: IC50, one value per compound below.
1. CCn1c(-c2cnccc2COC)c2c3cc(ccc31)-c1cc(O)cc(c1)C[C@H](NC(=O)[C@@H](NC(=O)c1ncco1)C(C)C)C(=O)N1CCC[C@H](N1)C(=O)OCC(C)(C)C2 [Compound A56]
2. CCn1c(-c2cnccc2COC)c2c3cc(ccc31)-c1cc(O)cc(c1)C[C@H](NC(=O)[C@H](C(C)C)N(C)C(=O)[C@@H]1CNC[C@@H]1C(F)(F)F)C(=O)N1CCC[C@H](N1)C(=O)OCC(C)(C)C2 [Compound A79]
3. CCn1c(-c2cccnc2[C@H](C)OC)c2c3cc(ccc31)-c1csc(n1)C[C@H](NC(=O)[C@H](C(C)C)N(C)C(=O)N1CC3(CCN(C)C3)C1)C(=O)N1CCC[C@H](N1)C(=O)OCC(C)(C)C2 [Compound A602]
4. CCn1c(-c2cc(N3CCN(C)CC3)cnc2[C@H](C)OC)c2c3cc(ccc31)-c1csc(n1)C[C@H](NC(=O)[C@H](C(C)C)N(C)C(=O)N1CC(OC)C1)C(=O)N1CCC[C@H](N1)C(=O)OCC(C)(C)C2 [Compound A466]
5. CCn1c(-c2cccnc2[C@H](C)OC)c2c3cc(ccc31)-c1cc(O)cc(c1)C[C@H](NC(=O)[C@H](C(C)C)N(C)C(=O)[C@H]1CN[C@@H]3CCO[C@H]13)C(=O)N1CCC[C@H](N1)C(=O)OCC(C)(C)C2 [Compound A231]
6. CCn1c(-c2cccnc2[C@H](C)OC)c2c3cc(ccc31)-c1cc(O)cc(c1)C[C@H](NS(=O)(=O)C1CS(=O)(=O)C1)C(=O)N1CCC[C@H](N1)C(=O)OCC(C)(C)C2 [Compound A191]

**Result**
1. 1000 to 10000 nM
2. 100 to 1000 nM
3. 100 to 1000 nM
4. 100 to 1000 nM
5. 10 to 100 nM
6. > 10000 nM

* * *

Assignment: determine reported pIC50 for the given compounds.
biological target: KRAS G12D (Homo sapiens (Human), UniProt P01116+P62937, G12D); experiment: Ras-Raf disruption/FRET/MOA assay (BRAF RBD, Cyclophilin A); assay type: biochemical; conditions: read-out: KRAS G12D FRET IC50
Sequence (P01116 other isoform, or with tags, fused parts or gaps G12D): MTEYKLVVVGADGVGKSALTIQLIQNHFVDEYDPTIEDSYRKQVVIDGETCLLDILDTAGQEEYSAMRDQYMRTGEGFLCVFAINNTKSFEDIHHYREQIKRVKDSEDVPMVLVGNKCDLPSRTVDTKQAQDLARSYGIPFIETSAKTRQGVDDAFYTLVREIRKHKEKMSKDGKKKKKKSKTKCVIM
Sequence (P62937 whole entry): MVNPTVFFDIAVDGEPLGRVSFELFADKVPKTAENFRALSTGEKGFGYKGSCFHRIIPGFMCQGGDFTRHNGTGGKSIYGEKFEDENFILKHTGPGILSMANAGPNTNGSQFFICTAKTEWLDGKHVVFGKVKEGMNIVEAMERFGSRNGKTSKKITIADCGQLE
pIC50: −log10 of the molar value.

given_smiles=CCn1c(-c2cccnc2[C@H](C)OC)c2c3cc(ccc31)-c1csc(n1)C[C@H](NC(=O)[C@H](C(C)C)N(C)C(=O)N(C)N(C)C)C(=O)N1CCC[C@H](N1)C(=O)OCC(C)(C)C2 observed="6.00 to 7.00"
given_smiles=CCN(CC)C(=O)N(C)[C@H](C(=O)N[C@H]1Cc2nc(cs2)-c2ccc3c(c2)c(c(-c2cccnc2[C@H](C)OC)n3CC)CC(C)(C)COC(=O)[C@@H]2CCCN(N2)C1=O)C(C)C observed="6.00 to 7.00"
given_smiles=CCn1c(-c2cccnc2[C@H](C)OC)c2c3cc(ccc31)-c1cc(O)cc(c1)C[C@H](NS(=O)(=O)C1CS(=O)(=O)C1)C(=O)N1CCC[C@H](N1)C(=O)OCC(C)(C)C2 observed="< 5.00"
given_smiles=CO[C@@H](C)c1ncccc1-c1c2c3cc(ccc3n1CC(F)(F)F)-c1csc(n1)C[C@H](NC(=O)[C@H](C(C)C)N(C)C(=O)N1CC(N(C)C)C1)C(=O)N1CCC[C@H](N1)C(=O)OCC(C)(C)C2 observed="6.00 to 7.00"

# context switch: different compound, same pIC50
**Query** I am curious: what pIC50 value has been reported for CCn1c(-c2cccnc2[C@H](C)OC)c2c3cc(ccc31)-c1cc(O)cc(c1)C[C@H](NC(=O)[C@H](C(C)C)N(C)C(=O)N1CC(N(C)C)C1)C(=O)N1CCC[C@H](N1)C(=O)OCC(C)(C)C2 ?
**Result** 5.00 to 6.00

* * *

target: KRAS G13D (Homo sapiens (Human), UniProt P01116+P62937, G13D); assay: Ras-Raf disruption/FRET/MOA assay, KRAS G13D; assay type: biochemical; details: read-out: KRAS G13D FRET IC50
measured property: IC50

Use the examples below as a reference point.
compound="CCn1c(-c2cnccc2COC)c2c3cc(ccc31)-c1cc(O)cc(c1)C[C@H](NC(=O)[C@@H](CN(C)C(=O)[C@H]1CN1)C(C)C)C(=O)N1CCC[C@H](N1)C(=O)OCC(C)(C)C2 [Example 99]" measured_property=IC50 observed="> 10 µM"
compound="CCn1c(-c2cccnc2[C@H](C)OC)c2c3cc(ccc31)-c1cc(O)cc(c1)C[C@H](NC(=O)[C@H](C(C)C)N1CCC3(CC(C(=O)[C@H]4CN4)C3)C1=O)C(=O)N1CCC[C@H](N1)C(=O)OCC(C)(C)C2 (stereo partly shown) [Example 115]" measured_property=IC50 observed="0.01 to 0.1 µM"
compound="CCn1c(-c2cnccc2COC)c2c3cc(ccc31)-c1cc(O)cc(c1)C[C@H](NC(=O)[C@H](C(C)C)N(C)C(=O)C1CN(C(=O)[C@H]3CN3)C1)C(=O)N1CCC[C@H](N1)C(=O)OCC(C)(C)C2 [Example 5]" measured_property=IC50 observed="0.1 to 1 µM"

Turning to the following compound.
**Query** Could you tell me which IC50 is on file for CCn1c(-c2cnccc2COC)c2c3cc(ccc31)-c1cc(O)cc(c1)C[C@H](NC(=O)[C@H](C(C)C)N(C)C(=O)CCN(C)C(=O)[C@@H]1CN1)C(=O)N1CCC[C@H](N1)C(=O)OCC(C)(C)C2 [Example 40] ?
**Result** 0.1 to 1 µM

Data credit: patent US20250195521A1
